assay-target: NAD-dependent protein deacylase sirtuin-5, mitochondrial (Homo sapiens) (UniProt Q9NXA8)
Sequence (Q9NXA8 whole entry, looked up): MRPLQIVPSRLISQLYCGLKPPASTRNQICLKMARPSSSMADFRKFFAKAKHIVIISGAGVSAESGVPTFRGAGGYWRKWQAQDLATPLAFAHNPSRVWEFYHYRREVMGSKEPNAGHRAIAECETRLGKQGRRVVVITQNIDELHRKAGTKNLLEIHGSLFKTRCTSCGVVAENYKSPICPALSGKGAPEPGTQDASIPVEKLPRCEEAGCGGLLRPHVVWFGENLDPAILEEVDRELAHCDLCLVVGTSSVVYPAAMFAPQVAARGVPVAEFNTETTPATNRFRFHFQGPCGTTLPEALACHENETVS
assay: blockers of sirtuin-5 peptide desuccinylation – biochemical, fluorescence imaging, cherry-pick, set 6, dose response (AID 720597);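 note: lower AMC signal can also come from blocking the trypsin step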
assay-setup: Purified SirT5, succinyl-peptide-AMC/trypsin fluorescence; series mostly up to 15 µM
Results with a measured potency or affinity are listed apart. Active and inactive are the calls of the source.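 Rule for the calls: active = fitted half-maximal dose no more than twice the top valid tested dose, for compounds that lower signal; inconclusive = fit invalid, or curve flat with activity between -70 and -30; inactive = potency past limit, curve flat within ±30, or signal increasing.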
quantity-kind: outcome

C[C@@H]1CN([C@@H](C)CO)S(=O)(=O)c2ccc(-c3cccc(F)c3)cc2O[C@@H]1CN(C)S(=O)(=O)c1ccc(F)cc1 :: inactive
COc1ccc(S(=O)(=O)N(C)C[C@H]2Oc3cc(C#CC4CCCC4)ccc3S(=O)(=O)N([C@@H](C)CO)C[C@@H]2C)cc1 :: inactive
C[C@@H]1CCCCO[C@H](CN(C)C(=O)Nc2ccc(C(F)(F)F)cc2)[C@H](C)CN([C@@H](C)CO)C(=O)c2cc(NS(=O)(=O)c3ccc(Cl)cc3)ccc2O1 :: inactive
CCCNC(=O)N(C)C[C@@H]1Oc2ncc(Br)cc2C(=O)N([C@H](C)CO)C[C@@H]1C :: inactive
CC(C)NC(=O)Nc1ccc2c(c1)C(=O)N([C@H](C)CO)C[C@H](C)[C@H](CN(C)C(=O)Cc1ccccc1)OCCCC[C@H](C)O2 :: inactive

Problem: Write down the reported outcome of O=C(NC1CCCCC1)[C@@H]1[C@@H](CO)[C@@H]2Cn3c(cccc3=O)[C@H]1N2CC1CCCCC1 , test system: NAD-dependent protein deacylase sirtuin-5, mitochondrial (Homo sapiens) (UniProt Q9NXA8).
Solution: inactive

Problem: Write down the reported outcome of C[C@H](CO)N1C[C@H](C)[C@@H](CN(C)S(=O)(=O)c2ccc(F)cc2)Oc2cc(C3=CCCCC3)ccc2S1(=O)=O , test system: NAD-dependent protein deacylase sirtuin-5, mitochondrial (Homo sapiens) (UniProt Q9NXA8).
Solution: inactive

---

assay-target: NAD-dependent protein deacylase sirtuin-5, mitochondrial (Homo sapiens) (UniProt Q9NXA8)
assay: blockers of sirtuin-5 peptide desuccinylation – biochemical, fluorescence imaging, cherry-pick, set 6, dose response (AID 720597);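 note: lower AMC signal can also come from blocking the trypsin step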
assay-setup: Purified SirT5, succinyl-peptide-AMC/trypsin fluorescence; series mostly up to 15 µM
Measured potencies and affinities stand elsewhere. Active and inactive are the calls of the source.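 How the source made its calls: active means fitted half-maximal dose no more than twice the top valid tested dose, for compounds that lower signal; inconclusive means fit invalid, or curve flat with activity between -70 and -30; inactive means potency past limit, curve flat within ±30, or signal increasing.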
quantity-kind: outcome

C[C@@H]1CN([C@H](C)CO)S(=O)(=O)c2ccc(-c3cccc(F)c3)cc2O[C@@H]1CN(C)S(=O)(=O)c1ccc(F)cc1 :: inactive
C[C@@H]1CN([C@@H](C)CO)C(=O)c2cc(NS(=O)(=O)c3ccc(F)cc3)ccc2O[C@@H](C)CCCCO[C@H]1CN(C)Cc1ccc(C(F)(F)F)cc1 :: inactive
C[C@@H]1CN([C@@H](C)CO)C(=O)Cc2cc(NS(=O)(=O)c3ccc(F)cc3)ccc2O[C@H]1CN(C)Cc1ccc(C(F)(F)F)cc1 :: inactive

---

assay-target: NAD-dependent protein deacylase sirtuin-5, mitochondrial (Homo sapiens)
assay: blockers of sirtuin-5 peptide desuccinylation – biochemical, fluorescence imaging, cherry-pick, set 6, dose response (AID 720597);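 note: lower AMC signal can also come from blocking the trypsin step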
assay-setup: Purified SirT5, succinyl-peptide-AMC/trypsin fluorescence; series mostly up to 15 µM
Potency and affinity values are given separately. The source made the active and inactive calls.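 How the source made its calls: active means fitted half-maximal dose no more than twice the top valid tested dose, for compounds that lower signal; inconclusive means fit invalid, or curve flat with activity between -70 and -30; inactive means potency past limit, curve flat within ±30, or signal increasing.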
quantity-kind: outcome

// worked examples, outcome included
O=C(C[C@H]1CC[C@@H](NC(=O)c2ccccc2)[C@H](CO)O1)NCCc1ccncc1 :: inactive
COc1ccc(S(=O)(=O)Nc2ccc3c(c2)CC(=O)N([C@@H](C)CO)C[C@@H](C)[C@H](CN(C)Cc2ccc(C(F)(F)F)cc2)O3)cc1 :: inactive
C[C@@H]1CN([C@H](C)CO)S(=O)(=O)c2ccc(C#Cc3ccccc3F)cc2O[C@H]1CN(C)C(=O)c1ccc2c(c1)OCO2 :: inactive
C[C@@H]1CN([C@@H](C)CO)C(=O)c2c(c3ccccc3n2C)-c2ccccc2CO[C@@H]1CN(C)Cc1cccc2c1OCCCO2 :: inactive
COc1ccccc1S(=O)(=O)N(C)C[C@H]1Oc2cc(C#CCC(C)C)ccc2S(=O)(=O)N([C@H](C)CO)C[C@@H]1C :: inactive

Here is the next item to consider.
Problem: Suppose we examine the molecule C[C@H](CO)N1C[C@H](C)[C@@H](CN(C)S(=O)(=O)c2ccc(F)cc2)Oc2cc(C#Cc3ccc(F)cc3)ccc2S1(=O)=O ; what outcome value has been reported?
Solution: inactive

---

assay-target: NAD-dependent protein deacylase sirtuin-5, mitochondrial (Homo sapiens) (UniProt Q9NXA8)
assay: blockers of sirtuin-5 peptide desuccinylation – biochemical, fluorescence imaging, cherry-pick, set 6, dose response (AID 720597);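 note: lower AMC signal can also come from blocking the trypsin step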
assay-setup: Purified SirT5, succinyl-peptide-AMC/trypsin fluorescence; series mostly up to 15 µM
Results with a measured potency or affinity are listed apart. Calls of active or inactive are those of the source.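 How the source made its calls: active means fitted half-maximal dose no more than twice the top valid tested dose, for compounds that lower signal; inconclusive means fit invalid, or curve flat with activity between -70 and -30; inactive means potency past limit, curve flat within ±30, or signal increasing.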
quantity-kind: outcome

// worked examples, outcome included
O=C(CCN1CCCCC1)N[C@@H]1CC[C@H](CC(=O)N2CCC(Cc3ccccc3)CC2)O[C@@H]1CO :: inactive
COc1ccccc1S(=O)(=O)N(C)C[C@H]1Oc2cc(C#CCC3CCCC3)ccc2S(=O)(=O)N([C@@H](C)CO)C[C@@H]1C :: inactive
Cc1noc(C)c1NC(=O)Nc1cccc2c1O[C@@H](CN(C)Cc1ccc(Oc3ccccc3)cc1)[C@@H](C)CN([C@@H](C)CO)C2=O :: inactive
COc1ccc(NC(=O)N(C)C[C@@H]2Oc3ccc(NS(=O)(=O)c4ccc(F)cc4)cc3C(=O)N([C@H](C)CO)C[C@@H]2C)cc1 :: inactive

Problem: Suppose we examine the compound COc1ccc(S(=O)(=O)N(C)C[C@@H]2OCCCC[C@@H](C)Oc3ccc(NC(=O)Nc4ccc(C(F)(F)F)cc4)cc3C(=O)N([C@@H](C)CO)C[C@@H]2C)cc1 ; what outcome value has been reported?
Solution: inactive

Problem: Suppose we examine the compound Cc1cccc(-c2ccc([C@H]3[C@H](CO)N4CCCCN(S(=O)(=O)c5cccc(C)c5)C[C@@H]34)cc2)c1 ; what outcome value has been reported?
Solution: inactive

Problem: Suppose we examine the compound COc1ccccc1NC(=O)N[C@H]1CC[C@H](CCNC(=O)c2ccc3c(c2)OCO3)O[C@@H]1CO ; what outcome value has been reported?
Solution: inactive

Problem: Suppose we examine the compound COc1ccc(S(=O)(=O)Nc2ccc3c(c2)CC(=O)N([C@@H](C)CO)C[C@H](C)[C@H](CN(C)Cc2ccc(Oc4ccccc4)cc2)O3)cc1 ; what outcome value has been reported?
Solution: inactive

Problem: Suppose we examine the compound O=C(C[C@H]1CC[C@H]2[C@@H](COC[C@@H](O)CN2Cc2cccc(Cl)c2)O1)N1CCCCC1 ; what outcome value has been reported?
Solution: inactive

Problem: Suppose we examine the compound C[C@@H]1CN([C@H](C)CO)C(=O)c2cc(NS(=O)(=O)c3ccc(Cl)cc3)ccc2O[C@@H](C)CCCCO[C@@H]1CN(C)Cc1ccccc1 ; what outcome value has been reported?
Solution: inactive

Problem: Suppose we examine the compound C[C@@H]1CCCCO[C@@H](CN(C)Cc2ccc(C(F)(F)F)cc2)[C@H](C)CN([C@@H](C)CO)C(=O)c2cc(NS(=O)(=O)c3ccccc3)ccc2O1 ; what outcome value has been reported?
Solution: inactive

Problem: Suppose we examine the compound C[C@@H]1CN([C@@H](C)CO)C(=O)c2cc(NS(C)(=O)=O)ccc2O[C@@H](C)CCCCO[C@@H]1CN(C)C ; what outcome value has been reported?
Solution: inactive

Problem: Suppose we examine the compound C[C@H]1CCCCO[C@H](CN(C)Cc2ccc(C(F)(F)F)cc2)[C@@H](C)CN([C@@H](C)CO)C(=O)c2cc(NS(=O)(=O)c3ccc(Cl)cc3)ccc2O1 ; what outcome value has been reported?
Solution: inactive

Problem: Suppose we examine the compound COc1ccc(S(=O)(=O)Nc2ccc3c(c2)C(=O)N([C@@H](C)CO)C[C@H](C)[C@@H](CN(C)Cc2ccc(C(F)(F)F)cc2)OCCCC[C@@H](C)O3)cc1 ; what outcome value has been reported?
Solution: inactive

---

assay-target: NAD-dependent protein deacylase sirtuin-5, mitochondrial (Homo sapiens)
assay: blockers of sirtuin-5 peptide desuccinylation – biochemical, fluorescence imaging, cherry-pick, set 6, dose response (AID 720597);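 note: lower AMC signal can also come from blocking the trypsin step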
assay-setup: Purified SirT5, succinyl-peptide-AMC/trypsin fluorescence; series mostly up to 15 µM
Potency and affinity values are given separately. Active and inactive are the calls of the source.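 Rule for the calls: active = fitted half-maximal dose no more than twice the top valid tested dose, for compounds that lower signal; inconclusive = fit invalid, or curve flat with activity between -70 and -30; inactive = potency past limit, curve flat within ±30, or signal increasing.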
quantity-kind: outcome

C[C@H]1CN([C@@H](C)CO)C(=O)Cc2cc(NC(=O)CCCCCC(=O)Nc3ccccc3N)ccc2O[C@H]1CN(C)Cc1ccc(Oc2ccccc2)cc1 :: inactive
O=C(CN1CCOCC1)N1CCCCN2[C@H](C1)[C@H](c1ccc(-c3ccccc3)cc1)[C@@H]2CO :: inactive
COc1ccccc1NC(=O)N[C@@H]1CC[C@H](CCNS(=O)(=O)c2ccc(Cl)cc2)O[C@@H]1CO :: inactive
C[C@@H]1CN([C@@H](C)CO)S(=O)(=O)c2ccc(C#Cc3cccc(F)c3)cc2O[C@H]1CN(C)S(=O)(=O)c1ccccc1F :: inactive
C[C@H]1CN([C@@H](C)CO)C(=O)Cc2cc(NC(=O)Nc3ccc(F)cc3)ccc2O[C@H]1CN(C)C :: inactive

Problem: Suppose we examine the molecule C[C@H](CO)N1C[C@H](C)[C@H](CN(C)Cc2ccc(Cl)c(Cl)c2)Oc2ccc(NC(=O)CCCCCC(=O)Nc3ccccc3N)cc2C1=O ; what outcome value has been reported?
Solution: inactive

Problem: Suppose we examine the molecule C[C@@H]1CN([C@H](C)CO)C(=O)Cc2cc(NC(=O)Nc3ccc(F)cc3)ccc2O[C@H]1CN(C)C ; what outcome value has been reported?
Solution: inactive

Problem: Suppose we examine the molecule CC(=O)N(C)C[C@@H]1Oc2ncc(-c3ccccc3C)cc2C(=O)N([C@H](C)CO)C[C@H]1C ; what outcome value has been reported?
Solution: inactive

Problem: Suppose we examine the molecule CN(C)C(=O)c1cccc(-c2ccc([C@H]3[C@@H](CO)N4CCCCN(S(C)(=O)=O)C[C@H]34)cc2)c1 ; what outcome value has been reported?
Solution: inactive

Problem: Suppose we examine the molecule COc1ccccc1-c1ccc2n(c1=O)C[C@@H]1[C@@H](CO)[C@H](C(=O)N3CCCCC3)[C@H]2N1CC1CC1 ; what outcome value has been reported?
Solution: inactive

Problem: Suppose we examine the molecule C[C@H](CO)N1C[C@H](C)[C@H](CN(C)Cc2ccncc2)Oc2ccc(NC(=O)CCN3CCOCC3)cc2C1=O ; what outcome value has been reported?
Solution: inactive

Problem: Suppose we examine the molecule C[C@H](CO)N1C[C@H](C)[C@@H](CN(C)Cc2ccc(Cl)c(Cl)c2)OCCCC[C@H](C)Oc2ccc(NS(=O)(=O)c3cccs3)cc2C1=O ; what outcome value has been reported?
Solution: inactive

Numbers sourced from PubChem BioAssay AID720597.
